species: Rattus norvegicus; experiment: Open TG-GATES - Regimen: Daily Repeat; assay type: toxicity, organism-based, Sprague-Dawley; design: regimen Daily Repeat, gender Male, age 6 weeks; details: in vivo, po, 300 mg/kg, 72 h, tissue Blood, route gavage, dose level Middle, time 3 day
measured metric: RBC

Consider the reported RBC for these compounds:
Challenge: Query RBC for O=C(O)c1cccnc1
Response given: 635.6 x10_4/ul

Challenge: Query RBC for CCN1CCCC1CNC(=O)c1cc(S(N)(=O)=O)ccc1OC (centres undefined) [SULPIRIDE]
Response given: 653.4 x10_4/ul

Challenge: Query RBC for O=C(N[C@H](CO)[C@H](O)c1ccc([N+](=O)[O-])cc1)C(Cl)Cl
Response given: 627.6 x10_4/ul

# context switch: different compound, same RBC
Challenge: Query RBC for CC(C)(S)[C@@H](N)C(=O)O
Response given: 658.6 x10_4/ul

###

species on record: Rattus norvegicus; experiment: Open TG-GATES - Regimen: Single; type: toxicity, organism-based, Sprague-Dawley; parameters: regimen Single, gender Male, age 6 weeks; details: in vivo, po, 0 mg/kg, 6 h, tissue Plasma, route gavage, dose level Control
measured metric: gamma-GTP (IU/L)
Report as a plain number; the unit IU/L is understood.

Consider the reported gamma-GTP for these molecules:
Challenge: Query gamma-GTP for CCSCC[C@H](N)C(=O)O [ETHIONINE]
Response given: 1

Challenge: Query gamma-GTP for O=C(N[C@H](CO)[C@H](O)c1ccc([N+](=O)[O-])cc1)C(Cl)Cl [CHLORAMPHENICOL]
Response given: 1.4

Challenge: Query gamma-GTP for O=C(O)c1cccnc1 [NIACIN]
Response given: 1

Challenge: Query gamma-GTP for CCC(C)(C)C(=O)O[C@H]1C[C@@H](C)C=C2C=C[C@H](C)[C@H](CC[C@@H]3C[C@@H](O)CC(=O)O3)[C@H]21 [SIMVASTATIN]
Response given: 1

Challenge: Query gamma-GTP for CC(=N)S [THIOACETAMIDE]
Response given: 1

Others:
Challenge: Query gamma-GTP for CCc1oc2ccccc2c1C(=O)c1cc(I)c(O)c(I)c1 [BENZIODARONE]
Response given: 1.4

###

organism: Rattus norvegicus; test: Open TG-GATES - Regimen: Daily Repeat; type: toxicity, organism-based, Sprague-Dawley; design: regimen Daily Repeat, gender Male, age 6 weeks; details: in vivo, po, 0 mg/kg, 72 h, tissue Blood, route gavage, dose level Control, time 3 day
Entries and their Ht values follow.
Report as a plain number; the unit % is understood.

Consider the reported Ht for these compounds:
Challenge: Query Ht for CN1C(=O)OC(C)(C)C1=O
Response given: 41

Challenge: Query Ht for O=C(O)c1cccnc1
Response given: 38.2

Challenge: Query Ht for C[C@](N)(Cc1ccc(O)c(O)c1)C(=O)O
Response given: 38.4

Challenge: Query Ht for C[C@]12CCC(=O)C=C1CC[C@@H]1[C@@H]2CC[C@@]2(C)[C@H]1CC[C@]2(C)O
Response given: 38.9

Challenge: Query Ht for O=C(N[C@H](CO)[C@H](O)c1ccc([N+](=O)[O-])cc1)C(Cl)Cl
Response given: 40.4

Challenge: Query Ht for CCSCC[C@H](N)C(=O)O
Response given: 38.3

Others:
Challenge: Query Ht for CCN1CCCC1CNC(=O)c1cc(S(N)(=O)=O)ccc1OC (stereo unspecified) [SULPIRIDE]
Response given: 41.1

Challenge: Query Ht for CC(C)C(=O)Nc1ccc([N+](=O)[O-])c(C(F)(F)F)c1 [FLUTAMIDE]
Response given: 41.8

Challenge: Query Ht for CCC(C)(C)C(=O)O[C@H]1C[C@@H](C)C=C2C=C[C@H](C)[C@H](CC[C@@H]3C[C@@H](O)CC(=O)O3)[C@H]21
Response given: 40

Challenge: Query Ht for C#C[C@]1(O)CC[C@H]2[C@@H]3CCc4cc(O)ccc4[C@H]3CC[C@@]21C
Response given: 40.2

Challenge: Query Ht for CC(C)(S)[C@@H](N)C(=O)O
Response given: 41.9

Challenge: Query Ht for CC(=O)Oc1cc(C(C)C)c(OCCN(C)C)cc1C
Response given: 39.2

###

Entries and their Cl values follow.
species on record: Rattus norvegicus; assay: Open TG-GATES - Regimen: Single; format: toxicity, organism-based, Sprague-Dawley; parameters: regimen Single, gender Male, age 6 weeks; details: in vivo, po, 0 mg/kg, 3 h, tissue Plasma, route gavage, dose level Control
Report as a plain number; the unit meq/L is understood.

Challenge: Query Cl for C[C@](N)(Cc1ccc(O)c(O)c1)C(=O)O [METHYLDOPA]
Response given: 106.8

Challenge: Query Cl for CC(C)(S)[C@@H](N)C(=O)O [PENICILLAMINE]
Response given: 106.2

Challenge: Query Cl for CCSCC[C@H](N)C(=O)O [ETHIONINE]
Response given: 100.6

Challenge: Query Cl for O=C(N[C@H](CO)[C@H](O)c1ccc([N+](=O)[O-])cc1)C(Cl)Cl [CHLORAMPHENICOL]
Response given: 105

###

species on record: Rattus norvegicus; experiment: Open TG-GATES - Regimen: Daily Repeat; format: toxicity, organism-based, Sprague-Dawley; parameters: regimen Daily Repeat, gender Male, age 6 weeks; settings: in vivo, po, 100 mg/kg, 72 h, tissue Blood, route gavage, dose level Low, time 3 day
measured metric: MCV (fL)
Report as a plain number; the unit fL is understood.

Challenge: Query MCV for O=C(O)c1cccnc1 [NIACIN]
Response given: 63.5

Challenge: Query MCV for CCN1CCCC1CNC(=O)c1cc(S(N)(=O)=O)ccc1OC (centres undefined) [SULPIRIDE]
Response given: 63.7

Challenge: Query MCV for CC(C)(S)[C@@H](N)C(=O)O [PENICILLAMINE]
Response given: 63.3

Others:
Challenge: Query MCV for O=C(N[C@H](CO)[C@H](O)c1ccc([N+](=O)[O-])cc1)C(Cl)Cl [CHLORAMPHENICOL]
Response given: 66.6

###

species: Rattus norvegicus; test: Open TG-GATES - Regimen: Daily Repeat; type: toxicity, organism-based, Sprague-Dawley; set-up: regimen Daily Repeat, gender Male, age 6 weeks; details: in vivo, po, 1000 mg/kg, […], tissue Blood, route gavage, dose level High, time 7 day
Entries and their Lym values follow.
Report as a plain number; the unit % is understood.

Challenge: Query Lym for O=C(N[C@H](CO)[C@H](O)c1ccc([N+](=O)[O-])cc1)C(Cl)Cl [CHLORAMPHENICOL]
Response given: 84.4

Others:
Challenge: Query Lym for CCN1CCCC1CNC(=O)c1cc(S(N)(=O)=O)ccc1OC (centres undefined) [SULPIRIDE]
Response given: 76.6

Challenge: Query Lym for O=C(O)c1cccnc1 [NIACIN]
Response given: 77.2

Challenge: Query Lym for CC(C)(S)[C@@H](N)C(=O)O [PENICILLAMINE]
Response given: 79.2

###

Entries and their K values follow.
organism: Rattus norvegicus; assay: Open TG-GATES - Regimen: Daily Repeat; type: toxicity, organism-based, Sprague-Dawley; set-up: regimen Daily Repeat, gender Male, age 6 weeks; conditions: in vivo, po, 0 mg/kg, […], tissue Plasma, route gavage, dose level Control, time 7 day
Report as a plain number; the unit meq/L is understood.

Consider the reported K for these compounds:
Challenge: Query K for CC(C)C(=O)Nc1ccc([N+](=O)[O-])c(C(F)(F)F)c1 [FLUTAMIDE]
Response given: 3.7

Challenge: Query K for C[C@]12CCC(=O)C=C1CC[C@@H]1[C@@H]2CC[C@@]2(C)[C@H]1CC[C@]2(C)O
Response given: 4

Challenge: Query K for CC(=O)Oc1cc(C(C)C)c(OCCN(C)C)cc1C
Response given: 4.1

Challenge: Query K for CC(C)(S)[C@@H](N)C(=O)O
Response given: 4

# context switch: different compound, same K
Challenge: Query K for Nc1nc(N)c2nc(-c3ccccc3)c(N)nc2n1
Response given: 4.3

###

organism: Rattus norvegicus; assay: Open TG-GATES - Regimen: Single; assay type: toxicity, organism-based, Sprague-Dawley; parameters: regimen Single, gender Male, age 6 weeks; conditions: in vivo, po, 0 mg/kg, 3 h, tissue Blood, route gavage, dose level Control
Lab note - cut at 300 mg/dL for Fbg: Condition met if strictly below, Condition not met if not.

Challenge: Quick check: does CC(=N)S [THIOACETAMIDE] have Fbg under 300 mg/dL?
Response given: Condition met

Challenge: Quick check: does O=C(O)c1cccnc1 have Fbg under 300 mg/dL?
Response given: Condition not met

Please examine the following record next.
Challenge: Quick check: does O=C(N[C@H](CO)[C@H](O)c1ccc([N+](=O)[O-])cc1)C(Cl)Cl have Fbg under 300 mg/dL?
Response given: Condition met
